- target_desc: VIM-1 (Pseudomonas aeruginosa, UniProt A0A0F7KYQ8)
- experiment_notes: MBL inhibition, FC-5 fluorescence assay, VIM-1
- Type: biochemical
- conditions: FC-5 cephalosporin substrate, ranges of obtained pIC50, read-out: pIC50 VIM-1 (converted)
measured_parameter: IC50

molecule | IC50
CC(C)c1cccc2c(-c3cc(Cl)cc(Cl)c3)c(C(=O)O)[nH]c12 [Prior Art Compound 76, reference compound] | > 10 nM
C[C@@H](c1cccc2c(-c3cccnc3)c(C(=O)O)[nH]c12)N1C[C@]2(C[C@@H](CN)C2)OC1=O | 0.1 to 1 nM
C[C@@H](c1cccc2c(-c3ccc(CS(C)(=N)=O)c(F)c3)c(C(=O)O)[nH]c12)N1C[C@]2(C[C@@H](CN)C2)OC1=O (stereo partly drawn) | 0.1 to 1 nM
CC(c1cccc2c(-c3ccc(CS(C)(=O)=O)c(F)c3)c(C(=O)O)[nH]c12)N1C(=O)c2cc(O)c(O)cc2C1=O (stereo not drawn) | > 10 nM
C[C@@H](c1cccc2c(-c3c[nH]c(=O)c(F)c3)c(C(=O)O)[nH]c12)N1C[C@]2(C[C@@H](CN)C2)OC1=O | > 10 nM

Look at each molecule and report its IC50.
1. CC(c1cccc2c(-c3ccc(CS(C)(=O)=O)c(F)c3)c(C(=O)O)[nH]c12)n1cc(CO)oc1=O (stereo not drawn)
2. CC(Oc1ccc(CN)cc1)c1cccc2c(-c3ccc(CS(C)(=O)=O)c(F)c3)c(C(=O)O)[nH]c12 (stereo not drawn)
3. CC(Nc1ncc(CCCN)o1)c1cccc2c(-c3ccc(CS(C)(=O)=O)c(F)c3)c(C(=O)O)[nH]c12 (stereo not drawn)
4. C[C@@H](c1cccc2c(-c3ccnc(N)c3)c(C(=O)O)[nH]c12)N1C[C@]2(C[C@@H](CN)C2)OC1=O
5. CC(c1cccc2c(-c3ccc(CS(C)(=O)=O)c(F)c3)c(C(=O)O)[nH]c12)n1cc(CN2CC[C@@H](N)C2)oc1=O (stereo partly drawn)
6. CNc1cc(-c2c(C(=O)O)[nH]c3c([C@H](C)N4C[C@]5(C[C@@H](CN)C5)OC4=O)cccc23)ccn1
7. CC(c1cnn(CCCN)c1)c1cccc2c(-c3ccc(CS(C)(=O)=O)c(F)c3)c(C(=O)O)[nH]c12 (stereo not drawn)

Return:
["> 10 nM", "1 to 10 nM", "> 10 nM", "1 to 10 nM", "1 to 10 nM", "1 to 10 nM", "1 to 10 nM"]

Look at each molecule and report its IC50.
1. CC(NC(=O)[C@H]1CC[C@H](CN)CC1)c1cccc2c(-c3ccc(CS(C)(=O)=O)c(F)c3)c(C(=O)O)[nH]c12 (mixture of isomers)
2. C[C@@H](c1cccc2c(-c3ccncc3)c(C(=O)O)[nH]c12)N1C[C@]2(C[C@@H](CN)C2)OC1=O

Return:
["> 10 nM", "1 to 10 nM"]

* * *

- Tested on: Acinetobacter baumannii NDM-1
- experiment_notes: Antibiotic susceptibility testing (MIC), AB NDM-1
- Type: cell-based
- conditions: agar or broth dilution (CLSI/EUCAST)
measured_parameter: MIC values AB NDM-1

molecule | MIC values AB NDM-1
C[C@@H](c1cccc2c(-c3ccn(C)c(=O)c3)c(C(=O)O)[nH]c12)N1C[C@]2(C[C@@H](CN)C2)OC1=O | B (B MIC values 2 ÷ 8)
C/C(=C\C(=O)N1CCOCC1)c1cccc2c(-c3ccc(CS(C)(=O)=O)c(F)c3)c(C(=O)O)[nH]c12 | C (C = MIC values > 8)
CC(c1cccc2c(-c3ccc(CS(C)(=O)=O)c(F)c3)c(C(=O)O)[nH]c12)n1cc(CN)oc1=O (stereo not shown) | A (A = MIC values ≤ 1)
C[C@@H](c1cccc2c(-c3ccc(N)nc3)c(C(=O)O)[nH]c12)N1C[C@]2(C[C@@H](CN)C2)OC1=O | B (B MIC values 2 ÷ 8)
C[C@@H](c1cccc2c(-c3c(F)cc(NS(C)(=O)=O)cc3F)c(C(=O)O)[nH]c12)n1cc(CN2CC(N)C2)oc1=O | C (C = MIC values > 8)

Look at each molecule and report its MIC values AB NDM-1.
1. C[C@@H](c1cccc2c(-c3c[nH]c(=O)c(F)c3)c(C(=O)O)[nH]c12)N1C[C@]2(C[C@@H](CN)C2)OC1=O
2. C[C@@H](c1cccc2c(-c3ccc(CS(C)(=O)=O)c(F)c3)c(C(=O)O)[nH]c12)n1cc(CCCN)oc1=O

Return:
["C (C = MIC values > 8)", "A (A = MIC values ≤ 1)"]

The values you see were collected from patent US20240246913A1.
